Experiment: Toxicity liver stage against HepG2, at 10uM
Format: cell-based
Set-up: test concentration 10 uM, cell line HepG2-A16-CD81EGFP
Conditions: human, HepG2-A16-CD81EGFP cells; read-out: INHIBITION
measured_parameter: cytotoxicity at 10 µM (%)
All answers are understood in %, so give the number only.

COCCN(C)CCN1CC2(CCN(C3CCOC3)CC2)OC1=O (centres undefined) | 4.63
CSc1ccsc1C(=O)NC(Cc1ccccc1)C(N)=O (centres undefined) | -5.24
N#Cc1cccc(Cl)c1NCCCc1nc(=O)[nH][nH]1 | 24.2
C[C@@H]1CN(C(=O)c2cccs2)C[C@]12CCN(CCN(C)C)C2=O | 4.4
O=C(NCc1ccco1)[C@H]1CC[C@@H]2[C@@H](CCN2C2CCC2)O1 | 6.47
CC(C)N(CC(N)=O)C(=O)c1cc(F)ccc1N1CCN(C)CC1 | 7.66
O=C(c1cccnc1)N1Cc2[nH]nc(COCCO)c2C1 | 13.3
CCc1ncc2c(n1)CN(Cc1nnc(C(C)C)o1)CC2 | -4.54
CC(C)[C@@H]1CN(S(=O)(=O)Cc2ccccc2)C[C@H]1NS(=O)(=O)N(C)C | -0.625
O=C(NCc1nc(NC2CCCC2)c2cc(Cl)ccc2n1)c1ccoc1 | -2.99

INPUT: Which value of cytotoxicity at 10 µM has been reported for "Cc1cc(C(=O)O)ccc1NS(=O)(=O)c1c(C)nn(C(C)C)c1C" in the records?
OUTPUT: 5.31

INPUT: Which value of cytotoxicity at 10 µM has been reported for O=C(c1cccc(N2CCCC2=O)c1)N1CCCC(n2cncn2)C1 (centres undefined) in the records?
OUTPUT: -12

---

Test: Toxicity liver stage against HepG2, at 10uM
Type: cell-based
Set-up: test concentration 10 uM, cell line HepG2-A16-CD81EGFP
Conditions: human, HepG2-A16-CD81EGFP cells; read-out: INHIBITION
measured_parameter: cytotoxicity at 10 µM (%)
All answers are understood in %, so give the number only.

Solved cases below.
CC(C)(O)CCc1cccc(C(=O)N2CCC[C@H]2C(N)=O)c1 | 10.4
O=C(Nc1nnc(N2CCCCC2)[nH]1)c1cccs1 | -10.7
CCN(Cc1cccc(F)c1)S(=O)(=O)N1CCOCC1 | -1.71
Cn1cnc2c1CCN(CCS(=O)(=O)c1ccccc1)C2 | -3.32
c1ccc2oc(CCCN3CCc4cncnc4C3)nc2c1 | -14.6
Cc1cc(C)n(-c2ccccc2NC(=O)NCCCN(C)S(C)(=O)=O)n1 | -4.01
CCc1[nH]nc(NC(=O)c2ccc(Cl)cn2)c1C | -9.69

// next entry
INPUT: Which value of cytotoxicity at 10 µM has been reported for "CCN(c1ccsc1C(=O)N1CCSCC1)S(=O)(=O)c1ccc(Cl)cc1" in the records?
OUTPUT: 14.5

---

Experiment: Toxicity liver stage against HepG2, at 10uM
Type: cell-based
Parameters: test concentration 10 uM, cell line HepG2-A16-CD81EGFP
Conditions: human, HepG2-A16-CD81EGFP cells; read-out: INHIBITION
cytotoxicity at 10 µM for assorted compounds
All answers are understood in %, so give the number only.

CC(O)CN1CCC(CNCc2ccc(OC(F)(F)F)cc2)CC1 (stereo not given) | -13.6
O=C(c1cnc(C2CC2)nc1)N1CCCC(c2nccs2)C1 (stereo not given) | 4.53
Cc1nn(C)cc1-c1ccnc(N2CCN(c3ccccc3)C(=O)C2)n1 | -7.57

INPUT: Which value of cytotoxicity at 10 µM has been reported for "CC(C)(C)c1ccc2c(c1)CCN2C(=O)c1ccc(=O)[nH]n1" in the records?
OUTPUT: 2.87

INPUT: Which value of cytotoxicity at 10 µM has been reported for O=C(CCC1CCN(C2Cc3ccccc3C2)CC1)NCC1CCCO1 (stereo not given) in the records?
OUTPUT: 7.36

---

Experiment: Toxicity liver stage against HepG2, at 10uM
Type: cell-based
Design: test concentration 10 uM, cell line HepG2-A16-CD81EGFP
Conditions: human, HepG2-A16-CD81EGFP cells; read-out: INHIBITION
measured_parameter: cytotoxicity at 10 µM (%)
All answers are understood in %, so give the number only.

O=C(NCc1cccnc1)NCC(O)c1ccccc1C(F)(F)F (stereo unspecified) | 1.5
CC(C)CCN(C)Cc1ccccc1-c1nc(C(C)C)cc(=O)[nH]1 | 5.46
O=S1(=O)NCC2(CCN(Cc3ccncc3)CC2)Oc2ncccc21 | 5.97
O=C(c1cccc(F)c1)N1C[C@H]2CCCC(OCc3cccnc3)[C@H]2C1 (stereo partly specified) | 8.21
Cc1nc(C)n(CC2CCCN2c2ncnc3sccc23)n1 (stereo unspecified) | -1.09
CCn1cc(NC(=O)NCC(C)N(C)C)cn1 (stereo unspecified) | -18.8
Cn1ccnc1C(NCc1csc(Br)c1)c1ccccc1 (stereo unspecified) | -0.12
CC(C)(C)Cc1nnc(NCc2cccc(C#N)c2)o1 | -16.1

INPUT: Which value of cytotoxicity at 10 µM has been reported for "Cc1cc(NC(=O)Cn2ccccc2=O)n(C)n1" in the records?
OUTPUT: -7.32

INPUT: Which value of cytotoxicity at 10 µM has been reported for "O=C(c1ccc(-c2ccccc2)[nH]c1=O)N1CCCn2ncnc21" in the records?
OUTPUT: 1.46

INPUT: Which value of cytotoxicity at 10 µM has been reported for O=S(=O)(NCC1COc2ccccc2C1)N1CCCCCC1 (stereo unspecified) in the records?
OUTPUT: -0.138

INPUT: Which value of cytotoxicity at 10 µM has been reported for "COC[C@@]12CCC[C@@H]1CN(C(=O)CN(C)C)C2" in the records?
OUTPUT: 4.84

INPUT: Which value of cytotoxicity at 10 µM has been reported for "Cc1ccc(NS(=O)(=O)c2cccc(C#N)c2)c(CN(C)C)c1" in the records?
OUTPUT: -4.97

INPUT: Which value of cytotoxicity at 10 µM has been reported for "CCN(C)C[C@H]1CC[C@@H](Cc2ccc3c(cnn3C)c2)O1" in the records?
OUTPUT: -0.957

INPUT: Which value of cytotoxicity at 10 µM has been reported for "COCC(=O)NC[C@H]1C[C@@H]2CCN1C[C@@H]2CN1CCc2ccccc2C1" in the records?
OUTPUT: -1.33

INPUT: Which value of cytotoxicity at 10 µM has been reported for "Cc1ccccc1N1CCN(C(=O)CSc2ccncc2)CC1=O" in the records?
OUTPUT: 6.71

---

Test: Toxicity liver stage against HepG2, at 10uM
Assay type: cell-based
Set-up: test concentration 10 uM, cell line HepG2-A16-CD81EGFP
Settings: human, HepG2-A16-CD81EGFP cells; read-out: INHIBITION
measured_parameter: cytotoxicity at 10 µM (%)
All answers are understood in %, so give the number only.

INPUT: Which value of cytotoxicity at 10 µM has been reported for "CCSc1ncc(CN2CCN(c3ncc(C)c(N)n3)CC2)cn1" in the records?
OUTPUT: -4.65

INPUT: Which value of cytotoxicity at 10 µM has been reported for Cc1oc(-c2ccsc2)nc1CNC(C)Cn1cccn1 (stereo not given) in the records?
OUTPUT: -9.81

INPUT: Which value of cytotoxicity at 10 µM has been reported for CCC(CNC(=O)OC)(OC)c1ccccc1 (stereo not given) in the records?
OUTPUT: 1.37

INPUT: Which value of cytotoxicity at 10 µM has been reported for "Cc1cc(CNC(=O)C2CCN(CC(N)=O)CC2)cc(C)n1" in the records?
OUTPUT: -3.06

INPUT: Which value of cytotoxicity at 10 µM has been reported for "CN(C)CCCNC(=O)c1ccc(Cl)cc1Cl" in the records?
OUTPUT: -21

---

Assay: Toxicity liver stage against HepG2, at 10uM
Format: cell-based
Design: test concentration 10 uM, cell line HepG2-A16-CD81EGFP
Settings: human, HepG2-A16-CD81EGFP cells; read-out: INHIBITION
cytotoxicity at 10 µM for assorted molecules
All answers are understood in %, so give the number only.

Solved cases below.
Cc1ccc(OCC(=O)NC2(C#N)CCSCC2)cc1C | 5.7
COCCNC(=O)[C@@]12CCO[C@@H]1CCN(Cc1scnc1C)C2 | -10.6
Cc1ccc(C)c(C(O)CN(C)Cc2nnc3ccccn23)c1 (centres undefined) | -13.8
Cc1ccc(-c2cn[nH]c2C2CCCN(c3cc(N)ncn3)C2)cc1 (centres undefined) | 55.4

INPUT: Which value of cytotoxicity at 10 µM has been reported for "CCS(=O)(=O)N1CCO[C@H]2[C@H](OCC3CCCC3)CC[C@@H]21" in the records?
OUTPUT: -9.6

INPUT: Which value of cytotoxicity at 10 µM has been reported for CC(C)(C)c1cn2nc(N3CCCC(Cn4cncn4)C3)sc2n1 (centres undefined) in the records?
OUTPUT: -9.32

INPUT: Which value of cytotoxicity at 10 µM has been reported for "Cc1ncsc1C(=O)NCCn1nc2ccccn2c1=O" in the records?
OUTPUT: 0.00307

INPUT: Which value of cytotoxicity at 10 µM has been reported for "CCC(=O)Nc1cccc(OCC(=O)N[C@@H]2C[C@@H]3CC[C@H]2C3)c1" in the records?
OUTPUT: -1.03

INPUT: Which value of cytotoxicity at 10 µM has been reported for "CCn1cc(CN2CCCN(C(=O)c3sccc3C#N)CC2)cn1" in the records?
OUTPUT: -6.41

INPUT: Which value of cytotoxicity at 10 µM has been reported for "Cc1ccc(NC2(C(=O)NCCCc3c(C)n[nH]c3C)CCCC2)cc1" in the records?
OUTPUT: -10.1

INPUT: Which value of cytotoxicity at 10 µM has been reported for "O=C(O)c1ccc(CN2CCC(c3ccnc4ccnn34)CC2)cc1" in the records?
OUTPUT: -29.9

INPUT: Which value of cytotoxicity at 10 µM has been reported for CCC(NC1CCN(S(C)(=O)=O)CC1)c1cccs1 (centres undefined) in the records?
OUTPUT: 0.125

INPUT: Which value of cytotoxicity at 10 µM has been reported for Cc1cc(CN(Cc2cccs2)CC2CCCO2)on1 (centres undefined) in the records?
OUTPUT: -10.1

INPUT: Which value of cytotoxicity at 10 µM has been reported for Cc1nn(C)c2cnn(C(C)C(=O)NCc3cccnc3)c12 (centres undefined) in the records?
OUTPUT: 9.77

INPUT: Which value of cytotoxicity at 10 µM has been reported for "CCc1cccc(NS(=O)(=O)c2cc3c(c(C(=O)O)c2)OCCO3)c1" in the records?
OUTPUT: 2.89

INPUT: Which value of cytotoxicity at 10 µM has been reported for "CNC(=O)Cc1ccc(NC(=O)NC2(c3cccc(F)c3)CC2)cc1" in the records?
OUTPUT: 5.74

INPUT: Which value of cytotoxicity at 10 µM has been reported for "Cc1cc(-c2ccc(C(=O)O)cc2)nc(C2CCN(C(C)C)CC2)n1" in the records?
OUTPUT: -26.3

INPUT: Which value of cytotoxicity at 10 µM has been reported for "O[C@]12CCNC[C@H]1CN(c1nccc3ccccc13)CC2" in the records?
OUTPUT: 12.3
